Below are compounds with their pIC50 as measured on UniProt:P35968.
Sequence (P35968 20-1356): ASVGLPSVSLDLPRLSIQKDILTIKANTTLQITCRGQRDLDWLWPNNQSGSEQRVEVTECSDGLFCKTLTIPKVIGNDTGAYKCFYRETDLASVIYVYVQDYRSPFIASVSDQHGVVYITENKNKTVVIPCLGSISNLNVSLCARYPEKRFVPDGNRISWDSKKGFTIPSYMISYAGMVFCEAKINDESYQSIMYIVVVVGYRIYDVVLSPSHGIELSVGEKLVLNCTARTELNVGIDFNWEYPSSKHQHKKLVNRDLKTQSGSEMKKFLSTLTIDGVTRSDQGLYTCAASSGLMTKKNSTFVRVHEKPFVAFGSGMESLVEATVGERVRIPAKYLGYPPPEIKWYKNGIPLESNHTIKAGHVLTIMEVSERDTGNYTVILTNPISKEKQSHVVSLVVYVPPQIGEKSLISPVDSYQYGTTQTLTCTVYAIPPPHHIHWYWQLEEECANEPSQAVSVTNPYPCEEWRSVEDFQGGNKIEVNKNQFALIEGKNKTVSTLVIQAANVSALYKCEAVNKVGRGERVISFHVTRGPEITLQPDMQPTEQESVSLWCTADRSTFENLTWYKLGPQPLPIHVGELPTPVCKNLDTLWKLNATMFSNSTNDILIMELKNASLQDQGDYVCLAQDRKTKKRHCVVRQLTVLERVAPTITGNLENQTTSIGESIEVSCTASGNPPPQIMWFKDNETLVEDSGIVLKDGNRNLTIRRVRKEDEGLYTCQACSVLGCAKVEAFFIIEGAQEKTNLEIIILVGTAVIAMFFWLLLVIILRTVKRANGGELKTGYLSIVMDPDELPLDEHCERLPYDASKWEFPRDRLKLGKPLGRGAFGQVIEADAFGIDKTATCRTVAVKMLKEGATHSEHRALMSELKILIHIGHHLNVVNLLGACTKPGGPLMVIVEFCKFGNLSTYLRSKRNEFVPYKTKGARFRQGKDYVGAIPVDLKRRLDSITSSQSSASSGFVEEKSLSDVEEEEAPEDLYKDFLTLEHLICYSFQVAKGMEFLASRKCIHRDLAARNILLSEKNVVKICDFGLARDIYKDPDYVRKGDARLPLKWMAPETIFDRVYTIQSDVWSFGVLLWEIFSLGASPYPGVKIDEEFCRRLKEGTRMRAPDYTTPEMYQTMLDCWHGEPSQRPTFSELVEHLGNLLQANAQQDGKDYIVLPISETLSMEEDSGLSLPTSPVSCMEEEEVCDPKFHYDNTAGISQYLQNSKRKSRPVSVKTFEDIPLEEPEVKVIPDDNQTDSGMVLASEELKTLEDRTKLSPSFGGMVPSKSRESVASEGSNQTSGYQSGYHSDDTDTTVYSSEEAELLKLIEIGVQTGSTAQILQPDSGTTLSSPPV
pIC50: −log10 of the molar value.
assayEndpoint: pIC50

Prompt line: May I ask what pIC50 has been recorded for O=C(CSc1nnc(Cn2cnc3sc4c(c3c2=O)CCCC4)o1)Nc1c([N+](=O)[O-])cccc1[N+](=O)[O-] ?
Response line: 6.54

Prompt line: Follow-up item: O=C(CSc1nnc(Cn2cnc3sc4c(c3c2=O)CCCC4)o1)Nc1nccs1
Response line: 6.38

====

- Test system: MCF-7
- test: MTT anti-proliferative assay, MCF-7
- Format: cell-based
- measurementParameters: Homo sapiens, MCF7, read-out: IC50 MCF-7
assayEndpoint: IC50 (µM)

For orientation, consider the following solved cases.
Prompt line: May I ask what IC50 has been recorded for O=C(CSc1nnc(Cn2cnc3sc4c(c3c2=O)CCCC4)o1)Nc1nccs1 [Compound 21] ?
Response line: 6.31

Prompt line: Follow-up item: O=C(CSc1nnc(Cn2cnc3sc4c(c3c2=O)CCCC4)o1)Nc1nc2ccccc2s1 [Compound 22]
Response line: 5.73

Prompt line: Follow-up item: O=C(CSc1nnc(Cn2cnc3sc4c(c3c2=O)CCCC4)o1)N1CCCCC1 [Compound 18]
Response line: 10.2

P = CNC(=O)c1cc(Oc2ccc(NC(=O)Nc3ccc(Cl)c(C(F)(F)F)c3)cc2)ccn1 [Sorafenib, reference compound]
Q = O=C(CSc1nnc(Cn2cnc3sc4c(c3c2=O)CCCC4)o1)Nc1ccc(Cl)cn1 [Compound 20]
R = O=C(CSc1nnc(Cn2cnc3sc4c(c3c2=O)CCCC4)o1)Nc1c([N+](=O)[O-])cccc1[N+](=O)[O-] [Compound 19]
Prompt line: Ordering: ascending IC50. List labels; respect the requested ordering.
Response line: Q, P, R
(Q: 5.38 µM, P: 9.98 µM, R: 16.5 µM)

Data origin, for the record: paper PMC10401666
